- protocol description: protein stability index of a GFP-peptide fusion (GPS, HEK-293T) (PSI 1-6); higher = more stable;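 also: 24-mer peptide tiles fused after GFP, lentivirally expressed, FACS-sorted into six equal bins by GFP/DsRed ratio, decoded by Illumina sequencing, PSI is the read-weighted mean bin number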
- measurement parameters: treatment: MLN4924 1 uM, 8 h; c terminus: a fixed tail appended
# label = bin(measured protein stability index), where bins are c1: < 3; c2: ≥ 3 and < 4; c3: ≥ 4

TPINQNVSLHQASLGGCSQDFLLF [NFE2L1]
c1
KYIHRMMQIEFIKQGSMNFRFIPV [TRAF3IP2]
c1
TSLLDLISIPITGDTLRTFSLVLV [DYNC2LI1]
c1

Please report the category associated with NSDMQILTASGDGTCALWDVESGQ [GNB5] , nothing else.
c3

Please report the category associated with YDPWNAPEGIQKVAKCLIGVNYPK [CRY1] , nothing else.
c1

Please report the category associated with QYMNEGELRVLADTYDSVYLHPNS [HDAC6] , nothing else.
c2

Please report the category associated with LQLKQELAMLNAVTEDLRLKDWEH [SCARA5] , nothing else.
c2

Please report the category associated with CASDEGEVIVFGGCANNLLVHHRA [KLHDC2] , nothing else.
c1

Where these numbers come from: the supplement of paper PMC10567573
